The measured values listed here are drawn from patent US20250179025A1.

- experimentSummary: Determination of specific surface area (SSA), multi-point nitrogen adsorption BET
- Assay type: physicochemical
- cond: samples vacuum dried overnight at 45° C.; relative pressure 0.05-0.3 p/p0; eleven linear points
Please note: Specific Surface Area (SSA) Multi-point BET exactly at 100 m^2/g is Criterion not met. Only values below 100 m^2/g get Criterion met.

Observe how each entry below is paired with its result.
CC(O)c1cc(C(=O)N[C@@H](C)Cn2ccc(-c3ccc(C#N)c(Cl)c3)n2)[nH]n1 (single isomer, unassigned) [Example 3, darolutamide] = Criterion not met
CC(O)c1cc(C(=O)N[C@@H](C)Cn2ccc(-c3ccc(C#N)c(Cl)c3)n2)[nH]n1 (stereo partly drawn) [Comparative example 1a, darolutamide] = Criterion met
CC(O)c1cc(C(=O)N[C@@H](C)Cn2ccc(-c3ccc(C#N)c(Cl)c3)n2)[nH]n1 (stereo partly drawn) [Example 10, darolutamide] = Criterion not met
CC(O)c1cc(C(=O)N[C@@H](C)Cn2ccc(-c3ccc(C#N)c(Cl)c3)n2)[nH]n1 (single isomer, unassigned) [Example 5, darolutamide] = Criterion met
CC(O)c1cc(C(=O)N[C@@H](C)Cn2ccc(-c3ccc(C#N)c(Cl)c3)n2)[nH]n1 (single isomer, unassigned) [Example 4, darolutamide] = Criterion not met

I'd appreciate it if you could check whether CC(O)c1cc(C(=O)N[C@@H](C)Cn2ccc(-c3ccc(C#N)c(Cl)c3)n2)[nH]n1 (stereo partly drawn) [Comparative example 2, darolutamide] has Specific Surface Area (SSA) Multi-point BET smaller than 100 m^2/g.
Criterion met

---

- cond: 10 min, pH 1
Please note: Concentration of Darolutamide in saturated solution exactly at 100 µg/mL is FALSE. Only values below 100 µg/mL get TRUE.

Observe how each entry below is paired with its result.
CC(O)c1cc(C(=O)N[C@@H](C)Cn2ccc(-c3ccc(C#N)c(Cl)c3)n2)[nH]n1 (single isomer, unassigned) [Example 4, darolutamide] = FALSE
CC(O)c1cc(C(=O)N[C@@H](C)Cn2ccc(-c3ccc(C#N)c(Cl)c3)n2)[nH]n1 (single isomer, unassigned) [Example 3, darolutamide] = FALSE
CC(O)c1cc(C(=O)N[C@@H](C)Cn2ccc(-c3ccc(C#N)c(Cl)c3)n2)[nH]n1 (some centres unmarked) [Comparative example 2, darolutamide] = TRUE

I'd appreciate it if you could check whether CC(O)c1cc(C(=O)N[C@@H](C)Cn2ccc(-c3ccc(C#N)c(Cl)c3)n2)[nH]n1 (some centres unmarked) [Comparative example 1a, darolutamide] has Concentration of Darolutamide in saturated solution smaller than 100 µg/mL.
TRUE

Moving on to the next molecule: CC(O)c1cc(C(=O)N[C@@H](C)Cn2ccc(-c3ccc(C#N)c(Cl)c3)n2)[nH]n1 (single isomer, unassigned) [Example 5, darolutamide]
FALSE

---

# Concentration of Darolutamide in saturated solution values compiled below
- cond: 5 min, pH 1
Could you give me the number in µg/mL? Just the number is fine.

CC(O)c1cc(C(=O)N[C@@H](C)Cn2ccc(-c3ccc(C#N)c(Cl)c3)n2)[nH]n1 (single isomer, unassigned) [Example 5, darolutamide] = 117
CC(O)c1cc(C(=O)N[C@@H](C)Cn2ccc(-c3ccc(C#N)c(Cl)c3)n2)[nH]n1 (some centres unmarked) [Comparative example 2, darolutamide] = 23
CC(O)c1cc(C(=O)N[C@@H](C)Cn2ccc(-c3ccc(C#N)c(Cl)c3)n2)[nH]n1 (single isomer, unassigned) [Example 4, darolutamide] = 137
CC(O)c1cc(C(=O)N[C@@H](C)Cn2ccc(-c3ccc(C#N)c(Cl)c3)n2)[nH]n1 (some centres unmarked) [Comparative example 1a, darolutamide] = 20

Now for another entry.
Given the entry CC(O)c1cc(C(=O)N[C@@H](C)Cn2ccc(-c3ccc(C#N)c(Cl)c3)n2)[nH]n1 (single isomer, unassigned) [Example 3, darolutamide] , report its measured Concentration of Darolutamide in saturated solution.
159
